Listed next: entries and their corresponding cell viability.
- Tested on: HepG2
- Protocol Summary: cell viability relative to DMSO; higher = less toxic
- Cond: 72 h; 100 nM
Just the number in %, nothing appended.

- Mol: "CCCCC/N=c1\\ccn(Cc2ccccc2)c2ccccc12"
  Target: "HepG2"
  Unit: "%"
  cell viability: 96
- Mol: "CC#C[C@]1(O)CC[C@H]2[C@@H]3CCC4=CC(=O)CCC4=C3[C@@H](c3ccc(N(C)C)cc3)C[C@@]21C"
  Target: "HepG2"
  Unit: "%"
  cell viability: 102
- Mol: "COc1ccc(-n2c(SCc3nc(-c4ccc(C)cc4)no3)nnc2-c2ccncc2)cc1"
  Target: "HepG2"
  Unit: "%"
  cell viability: 96.2
- Mol: "CCc1nc(N)nc(N)c1-c1ccc(Cl)cc1"
  Target: "HepG2"
  Unit: "%"
  cell viability: 102

*Q* Need cell viability, item `O=C1[C@@H]2[C@H]3CC[C@H](C3)[C@@H]2C(=O)N1C[C@@H]1CCCC[C@H]1CN1CCN(c2nsc3ccccc23)CC1`
*A* 99.5

*Q* Now consider `CNCC[C@H](Oc1cccc2ccccc12)c1cccs1` and answer again.
*A* 99.4
